study target: DAPK3 (human)
procedure summary: KINOMEscan competition binding
test parameters: compound 10.0 µM
Measured kinase still bound, per cent of control determines class: bin A: < 10%; bin B: ≥ 10% and < 30%; bin C: ≥ 30%

Quick check: band for `CN1CCN(c2ccc(C(=O)Nc3ncc4c(n3)N(C)c3ccccc3C(=O)N4C)cc2)CC1` bin C

Quick check: band for COc1cc(N2CCC(N3CCN(C)CC3)CC2)ccc1Nc1ncc2c(n1)N(C1CCCC1)C(C)CC(=O)N2 (centres undefined) bin B

Quick check: band for `N=C1NC(=O)/C(=C/c2ccc(-c3ccc(F)cc3)o2)S1` bin B

Quick check: band for CS(=O)C1=NC(=O)/C(=C/c2ccc(-c3ccc(S(N)(=O)=O)cc3)o2)S1 (centres undefined) bin A

Quick check: band for `COc1cc(N2CCN(C)CC2)ccc1Nc1ncc2c(n1)N(C)c1ccccc1N(C)C2=O` bin C

Quick check: band for COc1cc(C(=O)NC2CCN(C)CC2)ccc1Nc1ncc2c(n1)N(C1CCCC1)C(C)CC(=O)N2C (centres undefined) bin B

Quick check: band for `N=C1NC(=O)/C(=C/c2ccc(-c3ccc(F)cc3O)o2)S1` bin A

Quick check: band for `Cc1cn(-c2cc(NC(=O)c3cccc4cc(-c5ccc(/C=C6\SC(=N)NC6=O)o5)ccc34)cc(C(F)(F)F)c2)cn1` bin B

----------
study target: ABL1 (human) (UniProt P00519)
Sequence (P00519 whole entry, looked up): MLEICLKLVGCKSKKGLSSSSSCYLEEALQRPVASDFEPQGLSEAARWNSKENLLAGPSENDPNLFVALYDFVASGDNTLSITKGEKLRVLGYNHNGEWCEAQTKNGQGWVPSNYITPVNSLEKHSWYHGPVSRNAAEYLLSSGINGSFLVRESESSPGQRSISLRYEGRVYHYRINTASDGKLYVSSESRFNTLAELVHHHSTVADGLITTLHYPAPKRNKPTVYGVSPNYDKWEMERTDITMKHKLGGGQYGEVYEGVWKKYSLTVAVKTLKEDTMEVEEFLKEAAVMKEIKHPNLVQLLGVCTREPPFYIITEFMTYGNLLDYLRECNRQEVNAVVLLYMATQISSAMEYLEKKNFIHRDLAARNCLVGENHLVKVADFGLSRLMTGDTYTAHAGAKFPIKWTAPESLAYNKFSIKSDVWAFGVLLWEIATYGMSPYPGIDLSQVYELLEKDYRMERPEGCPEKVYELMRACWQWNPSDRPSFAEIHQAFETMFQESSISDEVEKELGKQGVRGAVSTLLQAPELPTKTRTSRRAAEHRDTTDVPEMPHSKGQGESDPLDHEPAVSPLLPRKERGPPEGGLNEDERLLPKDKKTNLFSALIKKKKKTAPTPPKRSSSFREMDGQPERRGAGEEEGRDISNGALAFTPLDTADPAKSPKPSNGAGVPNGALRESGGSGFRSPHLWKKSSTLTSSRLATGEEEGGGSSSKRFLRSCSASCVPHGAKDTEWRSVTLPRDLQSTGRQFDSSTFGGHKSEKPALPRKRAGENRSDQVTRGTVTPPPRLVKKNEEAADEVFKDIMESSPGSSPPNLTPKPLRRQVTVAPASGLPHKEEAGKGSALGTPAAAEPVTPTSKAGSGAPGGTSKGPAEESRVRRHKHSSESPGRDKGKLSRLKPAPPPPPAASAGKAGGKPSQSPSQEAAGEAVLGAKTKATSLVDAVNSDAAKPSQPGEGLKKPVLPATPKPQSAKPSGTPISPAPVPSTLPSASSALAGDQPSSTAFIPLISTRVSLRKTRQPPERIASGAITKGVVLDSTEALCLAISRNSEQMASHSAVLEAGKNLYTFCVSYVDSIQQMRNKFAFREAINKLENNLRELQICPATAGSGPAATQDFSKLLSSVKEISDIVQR
procedure summary: KINOMEscan competition binding
test parameters: compound 10.0 µM
Lab note: cut-off is 80%. Strictly less in kinase still bound, per cent of control is Met. Exactly 80% or more is Not met.

Determine whether this compound shows kinase still bound, per cent of control lower than 80% (ties excluded): `CN1C(=O)c2ccccc2N(C)c2nc(NS(=O)(=O)c3ccc(N)cc3)ncc21` Not met

Determine whether this compound shows kinase still bound, per cent of control lower than 80% (ties excluded): `CN1CCN(c2ccc(C(=O)Nc3ncc4c(n3)N(C)c3ccccc3C(=O)N4C)cc2)CC1` Not met

Determine whether this compound shows kinase still bound, per cent of control lower than 80% (ties excluded): `CS(=O)(=O)Nc1ccc(-c2cncc(/C=C3\SC(=N)NC3=O)c2)cc1` Met

Determine whether this compound shows kinase still bound, per cent of control lower than 80% (ties excluded): `COc1cc(N2CCC(O)CC2)ccc1Nc1ncc2c(n1)N1CCc3cccc(c31)C(=O)N2C` Not met

Determine whether this compound shows kinase still bound, per cent of control lower than 80% (ties excluded): `CS(=O)(=O)Nc1ccc(-c2ncc(/C=C3\SC(=N)NC3=O)s2)cc1` Met

Determine whether this compound shows kinase still bound, per cent of control lower than 80% (ties excluded): `O=C1NC(=O)/C(=C/c2c[nH]c(=O)c(-c3ccc(N4CCNCC4)nc3)c2)S1` Not met

Determine whether this compound shows kinase still bound, per cent of control lower than 80% (ties excluded): `COc1cc(N2CCN(C)CC2)ccc1Nc1ncc2c(n1)Nc1ccccc1NC2=O` Met

Determine whether this compound shows kinase still bound, per cent of control lower than 80% (ties excluded): `COc1cc(N2CCN(C)CC2)ccc1Nc1ncc2c(n1)N(C)c1ccccc1N(C)C2=O` Not met

Determine whether this compound shows kinase still bound, per cent of control lower than 80% (ties excluded): `CN1C(=O)c2ccccc2N(C)c2nc(Nc3ccc(N4CCC(O)CC4)cc3)ncc21` Met

----------
study target: EPHA2 (human) (UniProt P29317)
Sequence (P29317 whole entry, looked up): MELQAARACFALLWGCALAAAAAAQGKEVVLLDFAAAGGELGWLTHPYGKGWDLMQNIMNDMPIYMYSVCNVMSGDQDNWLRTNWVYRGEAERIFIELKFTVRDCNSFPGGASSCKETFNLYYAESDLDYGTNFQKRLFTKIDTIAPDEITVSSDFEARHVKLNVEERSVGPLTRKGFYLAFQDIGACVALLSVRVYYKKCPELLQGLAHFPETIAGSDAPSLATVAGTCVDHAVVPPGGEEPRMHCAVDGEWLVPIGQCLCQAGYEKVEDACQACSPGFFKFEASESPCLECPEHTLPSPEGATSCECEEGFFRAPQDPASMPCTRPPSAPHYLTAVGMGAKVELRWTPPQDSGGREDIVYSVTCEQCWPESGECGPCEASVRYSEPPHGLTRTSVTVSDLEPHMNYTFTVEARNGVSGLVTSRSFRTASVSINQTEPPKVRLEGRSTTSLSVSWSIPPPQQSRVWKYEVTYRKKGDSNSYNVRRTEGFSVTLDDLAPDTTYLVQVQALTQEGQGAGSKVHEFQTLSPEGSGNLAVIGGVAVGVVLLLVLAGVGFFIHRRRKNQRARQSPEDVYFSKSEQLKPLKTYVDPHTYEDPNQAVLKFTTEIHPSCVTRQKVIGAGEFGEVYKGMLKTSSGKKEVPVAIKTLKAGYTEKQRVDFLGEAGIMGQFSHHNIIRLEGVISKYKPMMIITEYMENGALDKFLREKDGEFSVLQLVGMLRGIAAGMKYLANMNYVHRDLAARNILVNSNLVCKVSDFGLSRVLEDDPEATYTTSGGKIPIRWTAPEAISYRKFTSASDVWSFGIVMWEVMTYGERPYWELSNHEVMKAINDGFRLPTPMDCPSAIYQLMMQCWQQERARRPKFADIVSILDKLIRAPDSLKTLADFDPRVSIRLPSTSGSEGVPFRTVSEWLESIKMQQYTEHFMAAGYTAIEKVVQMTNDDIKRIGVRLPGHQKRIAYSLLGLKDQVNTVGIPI
procedure summary: KINOMEscan competition binding
test parameters: compound 10.0 µM
Give kinase still bound, per cent of control for every item shown.
Only the number, expressed in %, is required.

So the reported kinase still bound, per cent of control for `COc1cc(N2CCN(C)CC2)ccc1Nc1ncc2c(n1)N(C)c1ccccc1N(C)C2=O` , on EPHA2 (human) (UniProt P29317), turned out to be 100

So the reported kinase still bound, per cent of control for `COc1cc(N2CCC(O)CC2)ccc1Nc1ncc2c(n1)N1CCc3cccc(c31)C(=O)N2C` , on EPHA2 (human) (UniProt P29317), turned out to be 95

So the reported kinase still bound, per cent of control for `COc1cc(N2CCN(C)CC2)ccc1Nc1ncc2c(n1)Nc1ccccc1NC2=O` , on EPHA2 (human) (UniProt P29317), turned out to be 100

So the reported kinase still bound, per cent of control for `CN1C(=O)c2ccccc2N(C)c2nc(Nc3ccc(N4CCC(O)CC4)cc3)ncc21` , on EPHA2 (human) (UniProt P29317), turned out to be 99

So the reported kinase still bound, per cent of control for `CN1C(=O)c2ccccc2N(C)c2nc(NS(=O)(=O)c3ccc(N)cc3)ncc21` , on EPHA2 (human) (UniProt P29317), turned out to be 100

So the reported kinase still bound, per cent of control for `O=C1NC(=O)/C(=C/c2c[nH]c(=O)c(-c3ccc(N4CCNCC4)nc3)c2)S1` , on EPHA2 (human) (UniProt P29317), turned out to be 100

So the reported kinase still bound, per cent of control for `COc1cc(N2CCN(C)CC2)ccc1Nc1ncc2c(n1)N(C)c1sccc1C(=O)N2C` , on EPHA2 (human) (UniProt P29317), turned out to be 100

So the reported kinase still bound, per cent of control for `CN1CCN(c2ccc(C(=O)Nc3ncc4c(n3)N(C)c3ccccc3C(=O)N4C)cc2)CC1` , on EPHA2 (human) (UniProt P29317), turned out to be 100

----------
Give kinase still bound, per cent of control for every item shown.
study target: FGFR3 (human) (UniProt P22607)
Sequence (P22607 whole entry, looked up): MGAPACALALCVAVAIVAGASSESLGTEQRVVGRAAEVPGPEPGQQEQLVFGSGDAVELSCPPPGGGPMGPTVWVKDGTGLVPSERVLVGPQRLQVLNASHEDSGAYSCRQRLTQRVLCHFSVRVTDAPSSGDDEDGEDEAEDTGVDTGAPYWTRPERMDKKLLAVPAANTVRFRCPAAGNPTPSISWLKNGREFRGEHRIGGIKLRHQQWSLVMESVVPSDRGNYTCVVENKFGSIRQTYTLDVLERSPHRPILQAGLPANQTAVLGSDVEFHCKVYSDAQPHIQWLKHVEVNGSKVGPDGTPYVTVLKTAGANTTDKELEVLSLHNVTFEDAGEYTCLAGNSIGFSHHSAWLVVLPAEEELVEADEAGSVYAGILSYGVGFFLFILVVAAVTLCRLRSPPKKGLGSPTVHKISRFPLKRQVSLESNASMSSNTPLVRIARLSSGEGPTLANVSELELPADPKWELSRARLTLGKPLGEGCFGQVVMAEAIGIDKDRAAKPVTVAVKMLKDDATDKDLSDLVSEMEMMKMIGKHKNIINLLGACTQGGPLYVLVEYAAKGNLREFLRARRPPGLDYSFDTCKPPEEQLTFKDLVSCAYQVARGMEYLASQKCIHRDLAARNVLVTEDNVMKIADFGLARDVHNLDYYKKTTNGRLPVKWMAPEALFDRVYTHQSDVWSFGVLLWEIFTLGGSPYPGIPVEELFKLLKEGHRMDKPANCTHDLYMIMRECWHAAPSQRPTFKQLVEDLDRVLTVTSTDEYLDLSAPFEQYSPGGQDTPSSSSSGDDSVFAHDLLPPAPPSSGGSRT
procedure summary: KINOMEscan competition binding
test parameters: compound 10.0 µM
Only the number, expressed in %, is required.

The value of kinase still bound, per cent of control measured for the compound `O=C1NC(=O)/C(=C/c2c[nH]c(=O)c(-c3ccc(N4CCNCC4)nc3)c2)S1` turned out to be 84

The value of kinase still bound, per cent of control measured for the compound `CN1C(=O)c2ccccc2N(C)c2nc(Nc3ccc(N4CCC(O)CC4)cc3)ncc21` turned out to be 62

The value of kinase still bound, per cent of control measured for the compound `CN1C(=O)c2ccccc2N(C)c2nc(NS(=O)(=O)c3ccc(N)cc3)ncc21` turned out to be 100

The value of kinase still bound, per cent of control measured for the compound `COc1cc(N2CCN(C)CC2)ccc1Nc1ncc2c(n1)N(C)c1sccc1C(=O)N2C` turned out to be 100

The value of kinase still bound, per cent of control measured for the compound `COc1cc(N2CCC(O)CC2)ccc1Nc1ncc2c(n1)N1CCc3cccc(c31)C(=O)N2C` turned out to be 100

The value of kinase still bound, per cent of control measured for the compound `COc1cc(N2CCN(C)CC2)ccc1Nc1ncc2c(n1)Nc1ccccc1NC2=O` turned out to be 97

The value of kinase still bound, per cent of control measured for the compound `CN1CCN(c2ccc(C(=O)Nc3ncc4c(n3)N(C)c3ccccc3C(=O)N4C)cc2)CC1` turned out to be 100

The value of kinase still bound, per cent of control measured for the compound `COc1cc(N2CCN(C)CC2)ccc1Nc1ncc2c(n1)N(C)c1ccccc1N(C)C2=O` turned out to be 100

----------
study target: MAP3K11 (human)
procedure summary: KINOMEscan competition binding
test parameters: compound 10.0 µM
measured endpoint: kinase still bound, per cent of control (%)
Only the number, expressed in %, is required.

The value of kinase still bound, per cent of control measured for the compound `O=C1NC(=O)/C(=C/c2c[nH]c(=O)c(-c3ccc(N4CCNCC4)nc3)c2)S1` turned out to be 100

The value of kinase still bound, per cent of control measured for the compound `COc1cc(N2CCN(C)CC2)ccc1Nc1ncc2c(n1)Nc1ccccc1NC2=O` turned out to be 88

The value of kinase still bound, per cent of control measured for the compound `CN1C(=O)c2ccccc2N(C)c2nc(NS(=O)(=O)c3ccc(N)cc3)ncc21` turned out to be 100

The value of kinase still bound, per cent of control measured for the compound `COc1cc(N2CCN(C)CC2)ccc1Nc1ncc2c(n1)N(C)c1sccc1C(=O)N2C` turned out to be 100

The value of kinase still bound, per cent of control measured for the compound `COc1cc(N2CCC(O)CC2)ccc1Nc1ncc2c(n1)N1CCc3cccc(c31)C(=O)N2C` turned out to be 100

The value of kinase still bound, per cent of control measured for the compound `CN1CCN(c2ccc(C(=O)Nc3ncc4c(n3)N(C)c3ccccc3C(=O)N4C)cc2)CC1` turned out to be 100

The value of kinase still bound, per cent of control measured for the compound `CN1C(=O)c2ccccc2N(C)c2nc(Nc3ccc(N4CCC(O)CC4)cc3)ncc21` turned out to be 100

The value of kinase still bound, per cent of control measured for the compound `COc1cc(N2CCN(C)CC2)ccc1Nc1ncc2c(n1)N(C)c1ccccc1N(C)C2=O` turned out to be 100

----------
study target: HIPK1 (human)
procedure summary: KINOMEscan competition binding
test parameters: compound 10.0 µM
Measured kinase still bound, per cent of control determines class: interval 1 = under 2%, interval 2 = from 2% up to 5%, interval 3 = 5% and over

Quick check: band for `CN1C(=O)c2ccccc2N(C)c2nc(NS(=O)(=O)c3ccc(N)cc3)ncc21` interval 3

Quick check: band for `COc1cc(N2CCN(C)CC2)ccc1Nc1ncc2c(n1)N(C)c1ccccc1N(C)C2=O` interval 3

Quick check: band for `N=C1NC(=O)/C(=C/c2ccc(-c3ccc(S(N)(=O)=O)cc3)o2)S1` interval 1

Quick check: band for `N=C1NC(=O)/C(=C/c2ccc(-c3cccc4cc[nH]c34)o2)S1` interval 1

Quick check: band for `CS(=O)(=O)Nc1ccc(-c2cccc(/C=C3\SC(=N)NC3=O)n2)cc1` interval 1

Quick check: band for `CSC1=NC(=O)/C(=C/c2c[nH]c(=O)c(-c3ccc(NS(C)(=O)=O)cc3)c2)S1` interval 2

Quick check: band for `N=C1NC(=O)/C(=C/c2ccc(-c3cnc4ccccc4c3)o2)S1` interval 1

Quick check: band for `N=C1NC(=O)/C(=C/c2ccc(-c3csc4ccccc34)o2)S1` interval 1

Quick check: band for `O=C1NC(=O)/C(=C/c2c[nH]c(=O)c(-c3ccc(N4CCNCC4)nc3)c2)S1` interval 2

Quick check: band for `N=C1NC(=O)/C(=C/c2cccc(-c3ccc(S(N)(=O)=O)cc3)c2)S1` interval 3

Quick check: band for `NS(=O)(=O)c1ccc(-c2cccc(/C=C3\SC(=O)NC3=O)c2)cc1` interval 2

Quick check: band for `O=C1NC(=O)/C(=C/c2c[nH]c(=O)c(-c3ccc(C(=O)Nc4ccc(N5CCNCC5)cc4)cc3)c2)S1` interval 3

Quick check: band for `N=C1NC(=O)/C(=C/c2c[nH]c(=O)c(-c3ccc(S(N)(=O)=O)cc3)c2)S1` interval 3

Quick check: band for `CCN1CCN(Cc2cc(NC(=O)c3cccc4cc(-c5ccc(/C=C6\SC(=O)NC6=O)o5)ccc34)cc(C(F)(F)F)c2)CC1` interval 3

Quick check: band for `CN(C)C1=NC(=O)/C(=C/c2ccc(-c3ccc(S(N)(=O)=O)cc3)o2)S1` interval 2

Quick check: band for `CS(=O)(=O)Nc1ccc(-c2ccc(/C=C3\SC(=N)NC3=O)o2)c(O)c1` interval 3

Quick check: band for `O=C1NC(=S)S/C1=C\c1ccc(-c2cncc3ccccc23)o1` interval 2

Quick check: band for CS(=O)C1=NC(=O)/C(=C/c2ccc(-c3ccc(S(N)(=O)=O)cc3)o2)S1 (stereo not given) interval 2

Quick check: band for `N=C1NC(=O)/C(=C/c2c[nH]c(=O)c(-c3ccc4cc[nH]c4c3)c2)S1` interval 2

Quick check: band for `N=C1NC(=O)/C(=C/c2ccc(-c3ccc(F)cc3O)o2)S1` interval 1
